biological target: SALL4 (Homo sapiens, UniProt Q96SW2+Q9UJQ4); construct: expressed in transfected cells; assay: HEK293 HiBiT in vitro degradation of SALL4; assay type: cell-based; settings: 18-24 hr incubation, normalized to DMSO control, read-out: SALL4 EC50
Sequence (Q9UJQ4 whole entry): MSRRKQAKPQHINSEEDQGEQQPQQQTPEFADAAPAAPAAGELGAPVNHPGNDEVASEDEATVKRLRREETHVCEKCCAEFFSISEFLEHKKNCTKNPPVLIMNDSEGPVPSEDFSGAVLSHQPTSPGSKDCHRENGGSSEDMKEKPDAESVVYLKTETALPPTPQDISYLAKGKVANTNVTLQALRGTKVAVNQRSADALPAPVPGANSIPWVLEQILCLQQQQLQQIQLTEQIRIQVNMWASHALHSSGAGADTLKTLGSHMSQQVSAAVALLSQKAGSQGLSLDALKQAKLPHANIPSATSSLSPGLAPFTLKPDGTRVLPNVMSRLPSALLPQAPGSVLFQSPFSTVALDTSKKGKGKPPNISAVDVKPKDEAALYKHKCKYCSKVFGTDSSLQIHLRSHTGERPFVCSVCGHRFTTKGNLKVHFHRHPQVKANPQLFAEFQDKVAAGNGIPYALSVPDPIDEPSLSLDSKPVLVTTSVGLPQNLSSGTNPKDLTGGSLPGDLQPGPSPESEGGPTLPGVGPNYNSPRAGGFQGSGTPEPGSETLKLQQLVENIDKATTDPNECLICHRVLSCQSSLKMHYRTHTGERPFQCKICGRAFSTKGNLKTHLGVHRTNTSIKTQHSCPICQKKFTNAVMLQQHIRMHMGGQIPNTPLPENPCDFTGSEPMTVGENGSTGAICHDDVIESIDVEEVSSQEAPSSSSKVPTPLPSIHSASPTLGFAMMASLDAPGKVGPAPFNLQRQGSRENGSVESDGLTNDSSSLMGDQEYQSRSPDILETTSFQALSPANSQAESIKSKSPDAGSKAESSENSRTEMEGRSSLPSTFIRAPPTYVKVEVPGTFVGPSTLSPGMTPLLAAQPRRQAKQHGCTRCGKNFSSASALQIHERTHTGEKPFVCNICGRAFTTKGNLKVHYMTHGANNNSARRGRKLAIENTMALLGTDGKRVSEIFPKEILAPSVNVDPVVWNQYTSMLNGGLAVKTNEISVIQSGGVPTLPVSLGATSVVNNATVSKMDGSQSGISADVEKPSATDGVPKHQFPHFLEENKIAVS
Sequence (Q96SW2 whole entry): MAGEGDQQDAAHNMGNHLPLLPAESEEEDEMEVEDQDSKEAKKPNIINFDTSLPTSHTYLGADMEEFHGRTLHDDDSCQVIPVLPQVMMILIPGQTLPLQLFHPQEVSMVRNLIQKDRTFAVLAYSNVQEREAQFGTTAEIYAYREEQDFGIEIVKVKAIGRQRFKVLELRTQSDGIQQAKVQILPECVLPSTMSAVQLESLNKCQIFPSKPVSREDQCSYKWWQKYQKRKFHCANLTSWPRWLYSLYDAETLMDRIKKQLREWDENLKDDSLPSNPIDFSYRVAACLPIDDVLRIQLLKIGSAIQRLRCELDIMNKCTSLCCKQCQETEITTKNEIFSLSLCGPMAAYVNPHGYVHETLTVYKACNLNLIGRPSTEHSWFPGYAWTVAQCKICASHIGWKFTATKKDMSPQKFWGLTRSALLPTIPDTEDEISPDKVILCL
Sequence (Q16531 whole entry partner): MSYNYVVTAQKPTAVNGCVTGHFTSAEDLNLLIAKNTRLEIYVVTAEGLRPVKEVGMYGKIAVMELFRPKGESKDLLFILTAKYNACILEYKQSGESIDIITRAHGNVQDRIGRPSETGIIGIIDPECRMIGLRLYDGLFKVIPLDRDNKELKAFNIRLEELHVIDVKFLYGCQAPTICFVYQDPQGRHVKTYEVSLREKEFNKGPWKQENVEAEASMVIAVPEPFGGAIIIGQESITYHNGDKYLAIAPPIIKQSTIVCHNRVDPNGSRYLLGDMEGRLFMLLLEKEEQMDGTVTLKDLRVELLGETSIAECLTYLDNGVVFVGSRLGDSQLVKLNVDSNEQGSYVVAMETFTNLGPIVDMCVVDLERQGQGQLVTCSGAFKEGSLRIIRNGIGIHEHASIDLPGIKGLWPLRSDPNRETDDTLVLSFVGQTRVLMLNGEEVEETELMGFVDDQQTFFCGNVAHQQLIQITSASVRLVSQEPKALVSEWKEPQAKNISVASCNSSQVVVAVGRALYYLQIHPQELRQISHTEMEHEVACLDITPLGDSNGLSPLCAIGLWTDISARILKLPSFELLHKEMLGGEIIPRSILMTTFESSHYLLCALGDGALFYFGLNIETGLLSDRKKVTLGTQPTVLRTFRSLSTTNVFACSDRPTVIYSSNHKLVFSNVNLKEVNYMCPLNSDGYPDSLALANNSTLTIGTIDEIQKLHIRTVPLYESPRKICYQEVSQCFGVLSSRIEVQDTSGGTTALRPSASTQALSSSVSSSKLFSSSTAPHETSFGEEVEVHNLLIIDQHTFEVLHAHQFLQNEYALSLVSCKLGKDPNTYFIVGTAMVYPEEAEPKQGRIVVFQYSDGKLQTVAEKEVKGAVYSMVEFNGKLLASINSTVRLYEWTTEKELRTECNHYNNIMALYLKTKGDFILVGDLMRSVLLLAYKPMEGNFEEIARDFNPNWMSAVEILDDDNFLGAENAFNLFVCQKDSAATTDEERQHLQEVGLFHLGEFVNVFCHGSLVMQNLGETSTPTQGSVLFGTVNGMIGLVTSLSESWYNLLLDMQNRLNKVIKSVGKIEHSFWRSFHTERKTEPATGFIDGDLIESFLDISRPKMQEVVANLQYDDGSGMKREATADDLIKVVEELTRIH
Hi there, I'd appreciate the recorded DC50 for every entry that follows.

Please report the recorded DC50 for O=C1CCC(N2Cc3cc(C[C@H]4CCCC[C@@H]4NC4CCc5[nH]nc(C(F)(F)F)c5C4)ccc3C2=O)C(=O)N1 (stereo partly drawn) .
3.1 µM

What does the data say about its DC50? Entry: O=C1CCC(N2Cc3c(ccc(C[C@H]4OCCC[C@@H]4NC4CCC(OC(F)F)CC4)c3F)C2=O)C(=O)N1 (single isomer, unassigned)
> 10 µM

Please look up its DC50: O=C1CC[C@@H](N2Cc3c(ccc(C[C@H]4OCCC[C@@H]4N[C@H]4CC[C@H](C(F)F)CC4)c3F)C2=O)C(=O)N1 (single isomer, unassigned)
> 10 µM

Endpoint output: DC50 of O=C1CCC(N2Cc3c(ccc(C[C@H]4OCCC[C@@H]4NC4CCC(C(F)F)CC4)c3F)C2=O)C(=O)N1 (single isomer, unassigned) . Value?
> 10 µM

Looking for the measured DC50 of CC(N[C@H]1CCCC[C@@H]1Cc1ccc2c(c1F)CN(C1CCC(=O)NC1=O)C2=O)C1CCOCC1 (single isomer, unassigned) , can you help?
> 10 µM

Quick check: DC50 of O=C1CCC(N2Cc3c(ccc(C[C@H]4OCCC[C@@H]4NC4CCN(CC(F)(F)F)CC4)c3F)C2=O)C(=O)N1 (stereo partly drawn) ?
> 10 µM

----------
target: IKZF2 (Homo sapiens, UniProt Q96SW2+Q9UKS7); assay: HEK293 HiBiT in vitro degradation of IKZF2; format: cell-based; design: expressed in transfected cells; conditions: HEK293 HiBiT, 18-24 hr incubation, normalized to DMSO control; read-out: IKZF2 EC50
Sequence (Q9UKS7 1-500 isoform Q9UKS7-2, one chain of several): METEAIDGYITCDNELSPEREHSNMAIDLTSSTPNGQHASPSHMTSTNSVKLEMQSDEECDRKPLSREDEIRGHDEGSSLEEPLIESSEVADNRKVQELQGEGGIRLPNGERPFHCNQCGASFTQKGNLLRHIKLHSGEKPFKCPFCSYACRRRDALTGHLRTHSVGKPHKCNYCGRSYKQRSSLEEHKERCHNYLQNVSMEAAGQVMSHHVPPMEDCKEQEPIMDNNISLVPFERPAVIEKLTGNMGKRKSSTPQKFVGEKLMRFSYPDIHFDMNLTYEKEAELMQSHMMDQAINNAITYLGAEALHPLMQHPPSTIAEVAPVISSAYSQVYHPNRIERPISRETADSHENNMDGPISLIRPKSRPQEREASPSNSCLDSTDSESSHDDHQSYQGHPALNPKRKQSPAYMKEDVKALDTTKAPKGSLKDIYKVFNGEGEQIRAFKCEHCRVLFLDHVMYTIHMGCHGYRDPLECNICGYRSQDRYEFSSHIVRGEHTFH
For each entry below, report its DC50 value.
Could you give me the number in nM? Just the number is fine.

Give the reported DC50 for CC(N[C@H]1CCCC[C@@H]1Cc1ccc2c(c1)CN(C1CCC(=O)NC1=O)C2=O)C1CCOCC1 (stereo partly shown) [Example 200] (system: IKZF2 (Homo sapiens, UniProt Q96SW2+Q9UKS7)).
4

// fetch IKZF2 (Homo sapiens, UniProt Q96SW2+Q9UKS7) DC50 for O=C1CCC(N2Cc3c(ccc(C[C@H]4OCCC[C@@H]4NC4CCC(C(F)F)CC4)c3F)C2=O)C(=O)N1 (single isomer, unassigned) [Example 283]
4

Given the entry CC(CC(C)(C)C)N[C@H]1CCCC[C@@H]1Cc1ccc2c(c1)CN(C1CCC(=O)NC1=O)C2=O (stereo partly shown) [Example 205] , what DC50 was observed with IKZF2 (Homo sapiens, UniProt Q96SW2+Q9UKS7)?
3

What measured DC50 is associated with O=C1CC[C@@H](N2Cc3c(ccc(C[C@H]4CCCC[C@@H]4NC4CCC(F)(F)CC4)c3F)C2=O)C(=O)N1 (single isomer, unassigned) [Example 335] on IKZF2 (Homo sapiens, UniProt Q96SW2+Q9UKS7)?
1

For IKZF2 (Homo sapiens, UniProt Q96SW2+Q9UKS7), provide DC50 of O=C1CCC(N2Cc3c(ccc(C[C@H]4CCCC[C@@H]4NCC4CCOCC4)c3F)C2=O)C(=O)N1 (stereo partly shown) [Example 187] please.
8

Entry CN(C1CCC(F)(F)CC1)[C@H]1CCCC[C@@H]1Cc1ccc2c(c1)CN(C1CCC(=O)NC1=O)C2=O (stereo partly shown) [Example 123] , system IKZF2 (Homo sapiens, UniProt Q96SW2+Q9UKS7): what DC50 was measured?
26

API: value(readout=DC50, system=IKZF2 (Homo sapiens, UniProt Q96SW2+Q9UKS7)) for record O=C1CC[C@H](N2Cc3cc(C[C@H]4CCCC[C@@H]4NC4CCC(F)(F)CC4)ccc3C2=O)C(=O)N1 (single isomer, unassigned) [Example 328]
1

Record CC(CCCC(F)(F)F)N[C@H]1CCCO[C@@H]1Cc1ccc2c(c1F)CN(C1CCC(=O)NC1=O)C2=O (stereo partly shown) [Example 321] : what is its DC50 with IKZF2 (Homo sapiens, UniProt Q96SW2+Q9UKS7)?
6

IKZF2 (Homo sapiens, UniProt Q96SW2+Q9UKS7) / DC50 / O=C1CCC(N2Cc3cc(C[C@H]4CCCC[C@@H]4NCc4c(F)cccc4F)ccc3C2=O)C(=O)N1 (stereo partly shown) [Example 18] : value?
42

Can you look up DC50 on IKZF2 (Homo sapiens, UniProt Q96SW2+Q9UKS7) for O=C1CCC(N2Cc3cc(C[C@H]4CCCC[C@@H]4NCCc4ccccc4)ccc3C2=O)C(=O)N1 (stereo partly shown) [Example 93] ?
23

Look up DC50 with IKZF2 (Homo sapiens, UniProt Q96SW2+Q9UKS7) for this molecule: N#CC1CCC(N[C@H]2CCCC[C@@H]2Cc2ccc3c(c2)CN(C2CCC(=O)NC2=O)C3=O)CC1 (single isomer, unassigned) [Example 268]
6

Lab note: need DC50 for CC(C)OC1CCC(N[C@H]2CCCO[C@@H]2Cc2ccc3c(c2F)CN(C2CCC(=O)NC2=O)C3=O)CC1 (single isomer, unassigned) [Example 284] on IKZF2 (Homo sapiens, UniProt Q96SW2+Q9UKS7), anyone have it?
5

Request body: readout DC50, system IKZF2 (Homo sapiens, UniProt Q96SW2+Q9UKS7), query CC(CC(C)(C)C)N[C@H]1CCCC[C@@H]1Cc1ccc2c(c1)CN(C1CCC(=O)NC1=O)C2=O (stereo partly shown) [Example 221] . Return the value.
2
